The origin of these recorded values is the nanobody polyreactivity screen of Harvey et al. (2022).

Assay: yeast display, Sf9 membrane polyspecificity reagent, FACS + sequencing; frameworks hold sequencing errors
test readout: polyreactivity (PSR sort gate)

Some sequences with recorded polyreactivity (PSR sort gate):
INSERT INTO assay_data (sequence_data, result) VALUES
  ('QVQLVESGGGLVQAGGSLRLSCAASGITFEYYAMGWYRQAPGKERELVAAIDTVGSTNYADSVKGRFTISRDNAKNTVYLQMNSLKPEDTAVYYCAADWSWWDGEDYHFEYDYWGQGTQVTVSS', 'low polyreactivity'),
  ('QVQLVESGGGLVQAGGSLRLSCAASGRIFYAYAMGWYRQAPGKETELVAAITWRGGRTFYADSVKGRFTISRDNAKNTVYFQMNSLKPEDTAVYYCATRGAPYGMDYWGQGTQVTVSS', 'high polyreactivity'),
  ('QVQLVESGGGLVQAGGSLRLSCAASGRILFRYGMGWYRQAPGKERELVARISWSGGNTHYADSVKGRFTISRDNAKNTVYLQMNSLKPEDTAVYYCNAYYTYWYPRYDYWGQGTQVTVSS', 'low polyreactivity'),
  ('QVQLVESGGGLVQAGGSLRLSCAASGSSFTYYTMGWYRQAPAKERELVAAISWSGGRTYYADSVTGRFTISRDNAKNTVYLQMNSLKPEDTAVYYCAAGPAPGHDSWGQGTQVTESS', 'high polyreactivity');

Continue with the next sequence.
Q: Returns the measured polyreactivity (PSR sort gate) for the input sequence. Input: QVQLVESGVGLVQAGGSLRLSCAASGYTIDWYTMGWYRQAPGKERELVAAISASGVRTYYADSVKGRFTISRDNAKNTVYLQMNSLKPEDTGVYYCNRVYSTSRITQYEFDYWGQGTQVTLSS
Result: low polyreactivity

---

Assay: yeast display, Sf9 membrane polyspecificity reagent, FACS + sequencing; frameworks hold sequencing errors
test readout: polyreactivity (PSR sort gate)

INSERT INTO measurements (sequence_data, result) VALUES
  ('QVQLVESGGGLVQAGGSLRLSCAASGRTIIYYGMGWYRQAPGKERELVAAISLRGSSTRYADSVKGRFTISRDNAKNTVYLQMNSLKPEDTAVYYCAARPRLSRYDYWGQGTQVTVSS', 'high polyreactivity'),
  ('QVQLVESGGGLVQAGGSLRLSCSASGSTFYRKTMGWYRQAPGKERELVAAISSGGGTKYADSVKGRFTISRDNAKNTVYLQMNSLKPEDTAVYYCAAVYYTLGYAYYPYIYYYWGQGTQVTVSS', 'high polyreactivity');

---

Assay: yeast display, Sf9 membrane polyspecificity reagent, FACS + sequencing; frameworks hold sequencing errors
test readout: polyreactivity (PSR sort gate)

Worked cases, polyreactivity (PSR sort gate) given:
INSERT INTO assay_data (sequence_data, result) VALUES
  ('QVQLVESGGGLVQAGGSLRLSCAASGSNLDYNAMGWSRQAPGKERELVAAISTGGRTNYADSVKGRFTISRDNAKNTVYLQMNSLKPDDTAVYYCAADTTTEITDTDYDYWGQGTQVTVSS', 'low polyreactivity'),
  ('QVQLVESGGGLVQAGGSLRLSCAASGSIYGRYVMGWYRQSPGKERELVATISSGGSTYYADSVKGRFTISRDNAKNTVYLQMNSLKPEDTAVYYCAASYSRFVDWIGDPGYDYWGQGTQVTVSS', 'low polyreactivity'),
  ('QVQLVESGGGLVQAGGSLRLSCAASGRTFKYYAMGWYRQAPGKERELVATISFRGGSTYYADSVKGRFTISRDNAKNTVYLQMNSLKPEDTSVYYCARRQWSRRPDDYWGQGTQVTVSS', 'high polyreactivity'),
  ('QVQLVESGGGLVQAGGSLRLSCAASGGTFSYYAMGWYRQAPGKERELVAAISGNGDTTYYADSVKGRFTSSRDNAKNTVYLQMNSLKPEATAVYYCNVFVSAGEEDEYWGQGTQVTVSS', 'low polyreactivity');

Q: Quick one: polyreactivity (PSR sort gate) of QVQLVESGGGLVQAGGSLRLSCAASGSTFGVYAMGWYRQAPGKERELVASITSGTSTYADSVKGRFTISRDNAKNTVYLQMNSLKPEDTAVYYCAAEYLYFNLGYDYWGQGTQVTVSS ?
Result: low polyreactivity

Q: Repeat with QLQLVESGGGLVQAGGSLRLSCAGSGGTFRVYAMGWYRQATGKERALVAAITGRGGSTYYADSVKGRFTISRDTAKNTVYLQMNSLKAEDTAVYYCAAVSFSDGSPYNYWGLGTQVTVSS
Result: low polyreactivity

Q: # repeat for QVQLVESGGGLVQAGGSLRLSCAASGSIFSINAMGWYRQAPGKERELVAAISWSGGSTYYADSVKGRFTISRDNAKNTVYLQMNSLKPEDTAVYYCNAEEDEYGELDYWGLGTQVTVSS
Result: low polyreactivity
